Read-out: Human Leukocyte Antigen - DR isotype (HLADR), HLA-DRA (gene 3122)
Test: BSK_CASM3C_HLADR: BioMAP Diversity Plus: CASM3C Assay for Human Leukocyte Antigen - DR isotype (HLADR) Biomarker Activity (AID 2283043);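 further: cell-surface HLA-DR protein level quantified by ELISA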
Settings: primary human coronary artery smooth muscle cells; actives raise or lower the signal
Calls of active or inactive are those of the source. How the source made its calls: active means hit-call score of the fitted dose curve at least 0.9, where 1 is the maximum; inactive means score below 0.9.
Thanks in advance; please answer with one of these: Yes for active, No for inactive

Example cases with answers are listed next.
{"columns": ["MOLECULE", "ANSWER LABEL"],
 "data": [
  ["O=C(Oc1ccc(Br)cc1)N1CCN2CCC1CC2", "No"],
  ["O=[N+]([O-])c1ccc(Oc2ccc(Cl)cc2Cl)cc1", "No"],
  ["Cn1cc(-c2ccccc2)c(=O)c(-c2cccc(C(F)(F)F)c2)c1", "No"],
  ["ClC1=C(Cl)[C@]2(Cl)[C@H]3[C@H]([C@@H]4C=C[C@H]3C4)[C@@]1(Cl)C2(Cl)Cl", "Yes"],
  ["COP(=S)(OC)SCN1C(=O)c2ccccc2C1=O", "No"],
  ["CCC(C)c1ccc(O)cc1 (stereo unspecified)", "No"],
  ["CN(C)[C@@H]1C(=O)C(C(N)=O)=C(O)[C@@]2(O)C(=O)C3=C(O)c4c(O)cccc4[C@@](C)(O)[C@H]3C[C@@H]12", "No"],
  ["Nc1cc(Cl)cc(C(=O)O)c1Cl", "No"],
  ["CC(C)(O)c1cnn2c(-c3ccc(F)c(-c4c(F)cccc4C#N)c3)cnc2n1", "Yes"],
  ["COC(=O)Nc1nc2ccccc2[nH]1", "Yes"]
]}

Exercise: How was Cc1ccc([N+](=O)[O-])cc1 classified in this test?
Solution: No

Exercise: How was [O-][Cl+]O classified in this test?
Solution: No

Exercise: How was CS(=O)(=O)NC(=O)c1cc(Oc2ccc(C(F)(F)F)cc2Cl)ccc1[N+](=O)[O-] classified in this test?
Solution: Yes

Exercise: How was CCOC(=O)[C@]1(c2ccccc2)Oc2ccccc2[C@@H]1N classified in this test?
Solution: Yes

Exercise: How was [Cl-].[Cl-].[Hg+2] classified in this test?
Solution: Yes

Exercise: How was O=[N+]([O-])C(Br)(CO)CO classified in this test?
Solution: Yes

Exercise: How was Oc1ccccc1Cl classified in this test?
Solution: No

* * *

Test: APR_HepG2_MitoticArrest_72hr: Apredica 72-hour HepG2 Assay for Mitotic Arrest (AID 2282918)
Settings: high-content imaging, actives raise or lower the signal
Activity calls are given as the source filed them. Rule for the calls: active = hit-call score of the fitted dose curve at least 0.9, where 1 is the maximum; inactive = score below 0.9.
Thanks in advance; please answer with one of these: active, inactive

Example cases with answers are listed next.
{"columns": ["COMPOUND", "ANSWER LABEL"],
 "data": [
  ["CCCCCCCCCCCCCN1CC(C)OC(C)C1 (stereo not drawn)", "inactive"],
  ["O=C1CCCO1", "inactive"],
  ["COc1cc(C=O)cc2c1[C@H](COC(N)=O)[C@]1(OC(C)=O)ON2C[C@H]2[C@@H]1N2C(C)=O", "inactive"],
  ["[O-][Cl+]O", "inactive"],
  ["Nc1cc(Cl)cc(C(=O)O)c1Cl", "inactive"]
]}

Exercise: How was CS(=O)(=O)NC(=O)c1cc(Oc2ccc(C(F)(F)F)cc2Cl)ccc1[N+](=O)[O-] classified in this test?
Solution: inactive

Exercise: How was c1ccc2c(c1)oc1ccccc12 classified in this test?
Solution: active

Exercise: How was OCCOCCO classified in this test?
Solution: inactive

Exercise: How was CC(C)COC(=O)c1ccccc1C(=O)OCC(C)C classified in this test?
Solution: active

Exercise: How was COP(=S)(OC)SCN1C(=O)c2ccccc2C1=O classified in this test?
Solution: inactive

Exercise: How was CCNS(=O)(=O)C(F)(F)C(F)(F)C(F)(F)C(F)(F)C(F)(F)C(F)(F)C(F)(F)C(F)(F)F classified in this test?
Solution: active

Exercise: How was Cn1cc(-c2ccccc2)c(=O)c(-c2cccc(C(F)(F)F)c2)c1 classified in this test?
Solution: inactive

Exercise: How was c1ccc(C2CO2)cc1 (stereo not drawn) classified in this test?
Solution: inactive

Exercise: How was [Cl-].[Cl-].[Hg+2] classified in this test?
Solution: active

Exercise: How was Nc1ccc(Cc2ccc(N)cc2)cc1 classified in this test?
Solution: inactive

Exercise: How was Cc1cc(N=Nc2ccccc2C)ccc1N classified in this test?
Solution: inactive

Exercise: How was Cc1cccc(N)c1N classified in this test?
Solution: active

Exercise: How was CC(C)(C)C(O)(CCc1ccc(Cl)cc1)Cn1cncn1 (stereo not drawn) classified in this test?
Solution: active

Exercise: How was CN(C)[C@@H]1C(=O)C(C(N)=O)=C(O)[C@@]2(O)C(=O)C3=C(O)c4c(O)cccc4[C@@](C)(O)[C@H]3C[C@@H]12 classified in this test?
Solution: inactive

* * *

Read-out: Monocyte Chemoattractant Protein-1 (MCP1), CCL2 (gene 6347)
Assay: BSK_3C_MCP1: BioMAP Diversity Plus: 3C Assay for Monocyte Chemoattractant Protein-1 (MCP1) Biomarker Activity (AID 2283017)
Conditions: primary human endothelial cells (HUVEC); actives raise or lower the signal
Activity calls are given as the source filed them. How the source made its calls: active means hit-call score of the fitted dose curve at least 0.9, where 1 is the maximum; inactive means score below 0.9.
MEASURE: AC50

Examples with answers:
{"columns": ["MOLECULE", "AC50"],
 "data": [
  ["CCCSC(=O)N(CCC)CCC", "inactive"],
  ["O=C(Nc1ccccc1)c1ccccc1I", "inactive"],
  ["O=C(O)C1C2CCC(O2)C1C(=O)O (stereo not drawn)", "inactive"],
  ["COc1cc(C=O)cc2c1[C@H](COC(N)=O)[C@]1(OC(C)=O)ON2C[C@H]2[C@@H]1N2C(C)=O", "6.85 µM (active)"],
  ["ClC1=C(Cl)C2(Cl)C3C(Cl)C=CC3C1(Cl)C2(Cl)Cl (stereo not drawn)", "30 µM (active)"],
  ["c1ccc(NNc2ccccc2)cc1", "inactive"],
  ["CC(C)N(Cc1ccccc1)C(=O)C(C)(C)C", "inactive"]
]}

Consider the additional molecule presented here.
Exercise: AC50 lookup needed for COP(=S)(OC)SCN1C(=O)c2ccccc2C1=O , thanks.
Solution: inactive

* * *

AC50 reference
Experiment: CCTE_Shafer_MEA_acute_network_burst_percentage: CCTE's Neural Acute Assay for Percentage of Network Bursts, Shafer Lab (AID 2284022);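 further: curves fitted for loss so actives lower network burst percentage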
The source made the active and inactive calls. Rule for the calls: active = hit-call score of the fitted dose curve at least 0.9, where 1 is the maximum; inactive = score below 0.9.

Exercise: AC50 lookup needed for CCCCOC(=O)c1ccccc1C(=O)OCc1ccccc1 , thanks.
Solution: 8.11 µM (active)

Exercise: AC50 lookup needed for c1ccc(N=Nc2ccccc2)cc1 , thanks.
Solution: 5.14 µM (active)

* * *

Assay: CCTE_Padilla_ZF_144hpf_TERATOSCORE: (Legacy) CCTE's 144 Hour Post-fertilization zebrafish Assay Teratoscore, Padilla Lab (AID 2283679)
The source made the active and inactive calls. The calls were made as follows: active = hit-call score of the fitted dose curve at least 0.9, where 1 is the maximum; inactive = score below 0.9.
Thanks in advance; please answer with one of these: active, inactive

{"columns": ["SMI", "ANSWER LABEL"],
 "data": [
  ["Nc1ccc(N=Nc2ccccc2)cc1", "active"],
  ["OCCCBr", "inactive"]
]}

Exercise: How was Clc1ccc(C(c2ccc(Cl)cc2)C(Cl)(Cl)Cl)cc1 classified in this test?
Solution: active

Exercise: How was Cn1cc(-c2ccccc2)c(=O)c(-c2cccc(C(F)(F)F)c2)c1 classified in this test?
Solution: active

Exercise: How was Oc1ccc2ccc3cccc4ccc1c2c34 classified in this test?
Solution: active

* * *

Read-out: Vascular cell adhesion molecule 1 (VCAM1), VCAM1 (gene 7412)
Assay: BSK_CASM3C_VCAM1: BioMAP Diversity Plus: CASM3C Assay for Vascular cell adhesion molecule 1 (VCAM1) Biomarker Activity (AID 2283055);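 further: VCAM-1 protein level quantified by ELISA on the cells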
Details: primary human coronary artery smooth muscle cells; actives raise or lower the signal
Calls of active or inactive are those of the source. How the source made its calls: active means hit-call score of the fitted dose curve at least 0.9, where 1 is the maximum; inactive means score below 0.9.
Thanks in advance; please answer with one of these: active, inactive

{"columns": ["COMPOUND", "ANSWER LABEL"],
 "data": [
  ["CCCCCCCCCCCCCN1CC(C)OC(C)C1 (stereo unspecified)", "inactive"],
  ["Clc1ccccc1Cl", "inactive"],
  ["CCCCCOC(=O)c1ccccc1C(=O)OCCCCC", "inactive"],
  ["COC(=O)Nc1nc2ccccc2[nH]1", "inactive"],
  ["C[C@]12C=CC3=C4CCC(=O)C=C4CC[C@H]3[C@@H]1CC[C@@H]2O", "inactive"],
  ["Cn1cc(-c2ccccc2)c(=O)c(-c2cccc(C(F)(F)F)c2)c1", "inactive"],
  ["c1ccc(N=Nc2ccccc2)cc1", "inactive"],
  ["C[N+](C)(C)CC1CO1 (stereo unspecified)", "inactive"]
]}

Kindly consider the entry below.
Exercise: How was Cc1cccc(N)c1N classified in this test?
Solution: active

Origin of values: PubChem BioAssay (EPA / NIEHS)
